These measurements were taken from patent US20210221894A1.

pKd values for the binders below.
targetOrSystem: T1, human DLL3-His (human, UniProt Q9NYJ7 27-492)
T1 construct: also called hDLL3
T1 sequence: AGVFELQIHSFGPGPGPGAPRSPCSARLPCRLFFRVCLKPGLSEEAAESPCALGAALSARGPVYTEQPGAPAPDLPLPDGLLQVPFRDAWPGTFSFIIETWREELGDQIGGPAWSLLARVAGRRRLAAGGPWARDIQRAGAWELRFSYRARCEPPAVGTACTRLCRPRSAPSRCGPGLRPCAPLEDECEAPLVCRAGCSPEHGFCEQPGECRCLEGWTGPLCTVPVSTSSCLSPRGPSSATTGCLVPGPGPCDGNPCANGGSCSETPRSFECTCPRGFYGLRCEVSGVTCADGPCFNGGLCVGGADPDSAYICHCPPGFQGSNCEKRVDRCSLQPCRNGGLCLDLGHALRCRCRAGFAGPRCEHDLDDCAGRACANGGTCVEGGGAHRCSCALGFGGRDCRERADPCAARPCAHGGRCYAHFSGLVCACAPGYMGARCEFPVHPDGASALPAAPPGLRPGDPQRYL
experimentSummary: SPR (Biacore 8K), 37 C, antibody captured on anti-human Fc, DLL3-His 0.411-300 nM injected, 1:1 fit
Experimental: The kinetics of binding of different humanized variants and parental murine 5E7 antibody to human DLL3-His was studied by Surface Plasmon Resonance using a Biacore 8K instrument. […] The kinetic parameters of human DLL3-His binding to murine and humanized variants of 5E7 antibody variants were calculated and shown in Table 39.
Give only the number. pKd is defined as minus log10 of concentration in molar units.

According to the records, this binder humanized anti-DLL3 antibody h5E7-YD-C6 (antibody, V domains shown, Expressed as IgG1 mAb: human IgG1 CH1-CH2-CH3 and human constant kappa; also called C6 variant) VH: QVQLVQSGAEVKKPGASVKVSCKASGFNIKDDYIHWVRQAPGQGLEWMGWIDSENGDTEYASKFQGRVTITADTSANTAYMELSSLRSEDTAVYYCATSEYYSYDLFVYWGQGTLVTVSS VL: DVQMTQSPSSLSASVGDRVTITCKSSQSLLHSNGKTYLNWLQQKPGQAPKLLLYLVSKLESGVPSRFSGSGSGTDYTLTISSLQPEDFATYYCLQTTHLYTFGQGTKLEIK displays pKd of 8.47

Next:
Just so you know, measured pKd for humanized anti-DLL3 antibody h5E7-YD-A6 (antibody, V domains shown, Expressed as IgG1 mAb: human IgG1 CH1-CH2-CH3 and human constant kappa; also called A6 variant) VH: QVQLVQSGAEVKKPGASVKVSCKASGFNIKDDYIHWVRQAPGQGLEWMGWIDSENGDTEYASKFQGRVTITADTSANTAYMELSSLRSEDTAVYYCATSSYWSYDLFVYWGQGTLVTVSS VL: DVQMTQSPSSLSASVGDRVTITCKSSQSLLHSNGKTYLNWLQQKPGQAPKLLLYLVSKLESGVPSRFSGSGSGTDYTLTISSLQPEDFATYYCLQTTHLYTFGQGTKLEIK came out at 8.96

// recorded pKd for humanized anti-DLL3 antibody h5E7-YD-F3 (antibody, V domains shown, Expressed as IgG1 mAb: human IgG1 CH1-CH2-CH3 and human constant kappa; also called F3 variant) VH: QVQLVQSGAEVKKPGASVKVSCKASGFNIKDDYIHWVRQAPGQGLEWMGWIDSENGDTEYASKFQGRVTITADTSANTAYMELSSLRSEDTAVYYCATSSYWSYDLLVYWGQGTLVTVSS VL: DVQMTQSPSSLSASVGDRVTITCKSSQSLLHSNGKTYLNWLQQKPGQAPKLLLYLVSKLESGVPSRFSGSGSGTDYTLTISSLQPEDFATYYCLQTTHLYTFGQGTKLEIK : 8.89
